tested on: THRa homodimer (NR concentration 90 nM); experiment: PBM binding z-score (relative to random genomic background probes); higher = stronger binding; sequences stand for … in GC…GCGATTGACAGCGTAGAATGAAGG
Label scheme for PBM binding z-score: lower than 0.3 is Not fulfilled, 0.3 and above is Fulfilled.

Below, 5 sequences whose answers are already recorded.
Check if PBM binding z-score >= 0.3 (inclusive). Item: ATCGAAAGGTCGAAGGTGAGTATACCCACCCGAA
Not fulfilled

Repeat with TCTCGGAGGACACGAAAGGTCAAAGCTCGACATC
Fulfilled

Repeat with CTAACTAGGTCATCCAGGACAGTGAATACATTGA
Fulfilled

Repeat with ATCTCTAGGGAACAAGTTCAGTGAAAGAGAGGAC
Not fulfilled

Repeat with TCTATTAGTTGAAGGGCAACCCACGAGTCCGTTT
Not fulfilled

---
Check if PBM binding z-score >= 0.3 (inclusive). Item: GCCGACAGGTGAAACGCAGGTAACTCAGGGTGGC
Not fulfilled

Repeat with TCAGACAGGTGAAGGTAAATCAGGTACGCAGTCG
Fulfilled

Repeat with GATACTGGGTCAAGGCCAGAGTACGCGTATTGAT
Not fulfilled

Repeat with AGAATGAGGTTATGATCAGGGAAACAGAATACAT
Fulfilled

Repeat with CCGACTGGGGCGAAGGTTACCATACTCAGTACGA
Not fulfilled

Repeat with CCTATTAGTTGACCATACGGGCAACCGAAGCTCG
Not fulfilled

###

test system: PPARg:RXRa IVT, anti-PPARg (NR concentration 270 nM, RXRa partner concentration 90 nM); assay: PBM binding z-score (relative to random genomic background probes); higher = stronger binding; sequences stand for … in GC…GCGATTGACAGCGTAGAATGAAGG
Catalogue of PBM binding z-score readings, one per entry.
Give the figure by itself; no unit, no explanation.

Use the examples below as a reference point.
Entry under review: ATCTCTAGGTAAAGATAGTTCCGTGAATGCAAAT . Reported PBM binding z-score?
1.52

Repeat with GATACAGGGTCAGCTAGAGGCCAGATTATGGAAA
2.23

Repeat with GCTATTAGATGAAAGGGCAACCGAATGATTCTCG
1.35

Repeat with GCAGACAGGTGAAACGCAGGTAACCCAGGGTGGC
0.862

Repeat with CTCGAAAGGTCGGTTGAGGTGAGTTTACGGATAA
0.924

Repeat with TCATATAGGTAATACAGGTGAAAGTCGGCATCTA
3.48

Repeat with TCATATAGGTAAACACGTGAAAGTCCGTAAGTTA
2.96

Repeat with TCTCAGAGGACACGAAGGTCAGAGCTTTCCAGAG
1.5

---
Entry under review: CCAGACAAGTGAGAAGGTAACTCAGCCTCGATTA . Reported PBM binding z-score?
-0.293

Repeat with CCGACCGGGGCATAAGGTTACCATAAGCCAGCCC
0.416

Repeat with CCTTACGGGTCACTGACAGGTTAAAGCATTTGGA
4.02

Repeat with TCTATTAGTTGTTTAGGGCAACCGAAACAGCGGA
1.19

###

tested on: THRa:RXRa (NR concentration 90 nM, RXRa partner concentration 90 nM); assay: PBM binding z-score (relative to random genomic background probes); higher = stronger binding; sequences stand for … in GC…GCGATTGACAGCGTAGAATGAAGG
measure: PBM binding z-score
Give the figure by itself; no unit, no explanation.

What is its PBM binding z-score for THRa:RXRa (NR concentration 90 nM, RXRa partner concentration 90 nM)? Entry: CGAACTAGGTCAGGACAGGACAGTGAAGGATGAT
3.71

Repeat with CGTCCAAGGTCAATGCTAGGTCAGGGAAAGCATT
4.67

---
What is its PBM binding z-score for THRa:RXRa (NR concentration 90 nM, RXRa partner concentration 90 nM)? Entry: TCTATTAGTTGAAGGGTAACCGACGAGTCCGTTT
0.32

Repeat with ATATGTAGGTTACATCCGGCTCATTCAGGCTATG
1.09

Repeat with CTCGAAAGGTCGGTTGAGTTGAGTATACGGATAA
3.4

Repeat with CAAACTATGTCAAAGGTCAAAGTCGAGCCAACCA
3.81

Repeat with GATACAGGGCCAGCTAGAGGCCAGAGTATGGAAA
-0.394

Repeat with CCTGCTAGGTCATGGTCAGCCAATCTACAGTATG
3.07

###

system: VDR:RXRa (NR concentration 270 nM, RXRa partner concentration 90 nM); assay: PBM binding z-score (relative to random genomic background probes); higher = stronger binding; sequences stand for … in GC…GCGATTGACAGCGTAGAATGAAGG
Label scheme for PBM binding z-score: lower than 2 is NOT MET, 2 and above is MET.

Check if PBM binding z-score >= 2 (inclusive). Item: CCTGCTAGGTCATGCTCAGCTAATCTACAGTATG
NOT MET

Repeat with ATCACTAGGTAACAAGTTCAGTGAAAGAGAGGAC
NOT MET

Repeat with TCTATTAATTGAAGGGCAACCGACGAGTCCGTTT
NOT MET

Repeat with CATCGGAGGACAACAGGAGGTCAGAGCTGCCAGA
MET

Repeat with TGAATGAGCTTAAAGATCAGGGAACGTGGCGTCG
NOT MET

Repeat with CGTACTGGGCCAAGGTCATTGATCAGTCAAAGCA
MET

Repeat with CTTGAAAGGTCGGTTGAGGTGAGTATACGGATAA
MET

Repeat with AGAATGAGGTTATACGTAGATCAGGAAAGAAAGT
NOT MET

###

Catalogue of PBM binding z-score readings, one per entry.
system: PPARa:RXRa (NR concentration 270 nM, RXRa partner concentration 90 nM); test: PBM binding z-score (relative to random genomic background probes); higher = stronger binding; sequences stand for … in GC…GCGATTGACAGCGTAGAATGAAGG

Use the examples below as a reference point.
Entry under review: ACATACGGGTCAACGAGGTTATAGCACGCGTATA . Reported PBM binding z-score?
5.39

Repeat with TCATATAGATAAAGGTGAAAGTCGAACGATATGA
2.57

---
Entry under review: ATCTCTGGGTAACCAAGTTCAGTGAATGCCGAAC . Reported PBM binding z-score?
1.09

Repeat with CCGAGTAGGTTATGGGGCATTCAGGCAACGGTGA
2.11

Repeat with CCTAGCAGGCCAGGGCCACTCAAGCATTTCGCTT
-0.638

Repeat with GATACAGGGTCAGCTAGAGGCCTGAGTATGGAAA
4.25

Repeat with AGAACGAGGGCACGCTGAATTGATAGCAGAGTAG
1.92

Repeat with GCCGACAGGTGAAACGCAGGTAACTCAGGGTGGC
0.797

Repeat with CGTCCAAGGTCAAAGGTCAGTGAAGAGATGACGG
7.33

###

Catalogue of PBM binding z-score readings, one per entry.
system: RARb:RXRa (NR concentration 270 nM, RXRa partner concentration 90 nM); assay: PBM binding z-score (relative to random genomic background probes); higher = stronger binding; sequences stand for … in GC…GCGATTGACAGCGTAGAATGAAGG
Give the figure by itself; no unit, no explanation.

Entry under review: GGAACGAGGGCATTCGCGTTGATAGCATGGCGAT . Reported PBM binding z-score?
1.71

Repeat with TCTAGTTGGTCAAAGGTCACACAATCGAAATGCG
5.16

---
Entry under review: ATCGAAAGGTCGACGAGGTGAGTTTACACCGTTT . Reported PBM binding z-score?
3.9

Repeat with ATCTCTAGGTAAAGATAGCTCAGTGAATGCAAAT
-0.195

Repeat with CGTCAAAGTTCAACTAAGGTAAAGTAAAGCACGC
5.39

Repeat with CGAACGAGGGCATGAGTTGATAACAAATGCCGAT
1.83

Repeat with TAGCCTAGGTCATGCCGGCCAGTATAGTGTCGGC
3.48

Repeat with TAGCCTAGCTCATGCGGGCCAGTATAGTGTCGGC
-1.16

Repeat with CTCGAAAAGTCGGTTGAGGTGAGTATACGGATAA
0.371

Repeat with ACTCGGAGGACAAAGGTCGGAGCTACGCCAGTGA
2.34

Repeat with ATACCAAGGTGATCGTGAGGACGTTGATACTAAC
0.704

Repeat with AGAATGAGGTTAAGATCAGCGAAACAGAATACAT
1.83

Repeat with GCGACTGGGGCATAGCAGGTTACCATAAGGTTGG
0.81

Repeat with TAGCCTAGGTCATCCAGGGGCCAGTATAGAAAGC
3.98

###

Catalogue of PBM binding z-score readings, one per entry.
test system: RXRa DBDmut IVT, anti-RXR (DBD mutation: RXRa K156A/R161A, NR concentration 90 nM); assay: PBM binding z-score (relative to random genomic background probes); higher = stronger binding; sequences stand for … in GC…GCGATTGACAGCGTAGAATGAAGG
Give the figure by itself; no unit, no explanation.

What is its PBM binding z-score for RXRa DBDmut IVT, anti-RXR (DBD mutation: RXRa K156A/R161A, NR concentration 90 nM)? Entry: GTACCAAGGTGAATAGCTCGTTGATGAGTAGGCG
-0.348

Repeat with ATCTCTAGGTAAAACTTCAGTGAATCCCGAGGAT
-0.375

Repeat with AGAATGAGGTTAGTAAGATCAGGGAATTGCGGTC
0.175

Repeat with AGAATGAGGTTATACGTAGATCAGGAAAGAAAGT
1.77

Repeat with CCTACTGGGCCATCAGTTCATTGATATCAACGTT
0.88

Repeat with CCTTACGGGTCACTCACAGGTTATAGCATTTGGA
2.04

Repeat with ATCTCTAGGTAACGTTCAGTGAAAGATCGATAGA
0.201

Repeat with ATCGAACGGTCGAAGGTGAGTATACCCACCCGAA
-1.05

Pending sequence:
What is its PBM binding z-score for RXRa DBDmut IVT, anti-RXR (DBD mutation: RXRa K156A/R161A, NR concentration 90 nM)? Entry: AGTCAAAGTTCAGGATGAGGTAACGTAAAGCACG
2.73
